Data provenance: BindingDB's records for doi:10.1124/jpet.102.036376

# TARGET_ENTITY: UniProt P08482
# Sequence (P08482 whole entry): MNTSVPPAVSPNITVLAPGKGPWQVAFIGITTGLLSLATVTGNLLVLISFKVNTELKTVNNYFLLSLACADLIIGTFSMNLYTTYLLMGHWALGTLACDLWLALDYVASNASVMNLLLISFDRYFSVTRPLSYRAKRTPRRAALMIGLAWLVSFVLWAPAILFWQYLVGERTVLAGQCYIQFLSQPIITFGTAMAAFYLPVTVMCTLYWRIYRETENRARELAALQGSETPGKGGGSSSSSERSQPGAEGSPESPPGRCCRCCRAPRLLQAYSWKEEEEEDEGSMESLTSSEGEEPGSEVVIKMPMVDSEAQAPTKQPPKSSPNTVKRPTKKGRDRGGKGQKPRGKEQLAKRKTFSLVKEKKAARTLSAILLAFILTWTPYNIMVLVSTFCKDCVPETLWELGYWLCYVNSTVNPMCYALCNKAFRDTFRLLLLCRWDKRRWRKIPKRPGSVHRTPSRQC

- COMPOUND: "CC(CCC(=O)NCCS(=O)(=O)O)C1CCC2C3CCC4CC(O)CCC4(C)C3CCC12C (configuration not stated) [NSC_10595]"
  Ki: "> 10 µM"
- COMPOUND: "CC(CCC(=O)NCC(=O)O)C1CCC2C3CCC4CC(O)CCC4(C)C3CCC12C (configuration not stated) [CAS_115245]"
  Ki: "> 10 µM"
